assay: Ionization constant (pKa); type: physicochemical
Measured Attribute: pKa
Write the number on its own, no unit after it.

Completed entries (count: 3):
c1ccc(-c2ncc[nH]2)cc1 : 6.48
Cn1ccnc1Br : 3.82
CSc1ncc[nH]1 : 5.95

Identify the reported pKa for the following entry. `Cn1ccnc1N`
8.54

Identify the reported pKa for the following entry. `Cc1cccc(Cl)c1N=C1NCCN1`
9.4

Identify the reported pKa for the following entry. `Cc1ccc(NC2=NCCN2)c(Cl)c1`
9.41

Identify the reported pKa for the following entry. `Brc1cc(Br)c(N=C2NCCN2)c(Br)c1`
7.46

Identify the reported pKa for the following entry. `Clc1cccc(Br)c1N=C1NCCN1`
7.93

Identify the reported pKa for the following entry. `Clc1cccc(N=C2NCCN2)c1Cl`
8.55

Identify the reported pKa for the following entry. `Clc1ccc(Cl)c(N=C2NCCN2)c1`
8.5

---

test: Ionization constant (pKa); type: physicochemical
Measured Attribute: pKa

Completed entries (count: 2):
Cc1ncc[nH]1 : 7.86
Nc1ncc[nH]1 : 8.46

Please look at the following compound next.
Identify the reported pKa for the following entry. `COc1cc(Cl)c(N=C2NCCN2)c(Cl)c1`
8.57

---

experiment: Ionization constant (pKa); format: physicochemical
A collection of compounds and their measured pKa
Write the number on its own, no unit after it.

Fc1ncc[nH]1 : 2.4
Cc1ccccc1N=C1NCCN1 : 10.2
CCc1cccc(CC)c1NC1=NCCN1 : 10.6

Identify the reported pKa for the following entry. `Cc1cc(C)c(N=C2NCCN2)c(C)c1`
10.8

Identify the reported pKa for the following entry. `Cc1cc(Cl)c(N=C2NCCN2)c(Cl)c1`
8.29

Identify the reported pKa for the following entry. `Cc1cc(Cl)cc(Cl)c1N=C1NCCN1`
9.03

---

experiment: Ionization constant (pKa); format: physicochemical
A collection of molecules and their measured pKa
Write the number on its own, no unit after it.

O=[N+]([O-])c1cc(Cl)c(N=C2NCCN2)c(Cl)c1 : 6.86
Brc1ncc[nH]1 : 3.79

Identify the reported pKa for the following entry. `O=[N+]([O-])c1ncc[nH]1`
-0.81

Identify the reported pKa for the following entry. `Cc1cccc(C)c1N=C1NCCN1`
10.5

Identify the reported pKa for the following entry. `Clc1ncc[nH]1`
3.55

Identify the reported pKa for the following entry. `Cn1ccnc1`
7.12

Identify the reported pKa for the following entry. `Clc1cc(Br)cc(Cl)c1N=C1NCCN1`
7.72

Identify the reported pKa for the following entry. `Cc1cc(C)c(N=C2NCCN2)c(Cl)c1`
9.59

Identify the reported pKa for the following entry. `Cc1cc(Cl)ccc1N=C1NCCN1`
9.99

Identify the reported pKa for the following entry. `Brc1cccc(Br)c1N=C1NCCN1`
7.8

Identify the reported pKa for the following entry. `Cc1cc(Cl)cc(C)c1N=C1NCCN1`
10.2

Identify the reported pKa for the following entry. `Clc1cc(Cl)c(N=C2NCCN2)c(Cl)c1`
7.75

Identify the reported pKa for the following entry. `Clc1ccc(N=C2NCCN2)c(Cl)c1`
8.73

Identify the reported pKa for the following entry. `Clc1ccccc1N=C1NCCN1`
9.15

Identify the reported pKa for the following entry. `Cc1cc(Br)cc(C)c1N=C1NCCN1`
10.2

Identify the reported pKa for the following entry. `Cn1ccnc1F`
2.3
